Reference source: ChEMBL document CHEMBL3352487

tested on: Streptococcus pneumoniae; assay: Antimicrobial activity against Streptococcus pneumoniae ERY2 after 24 hrs by broth microdilution method; assay type: functional; conditions: ERY2, 24 h
Measured parameter: MIC (µg/mL)
Field format: number, assumed µg/mL, no unit text.

Example results:
{"Molecular string": "C=C1C[C@@H](C(=O)Nc2ncc(C)s2)N(C(=O)[C@H](CCCC)CN(O)C=O)C1", "MIC / µg/mL": 2}
{"Molecular string": "CCCC[C@H](CN(O)C=O)C(=O)N1CC=C[C@H]1C(=O)Nc1ccc(F)c[n+]1[O-]", "MIC / µg/mL": 1}
{"Molecular string": "O=CN(O)C[C@@H](CC1CCCC1)C(=O)N1CC=C[C@H]1C(=O)Nc1ccc(F)cc1", "MIC / µg/mL": 1}
{"Molecular string": "Cc1cnc(NC(=O)[C@@H]2C=CCN2C(=O)[C@H](CC2CCCC2)CN(O)C=O)s1", "MIC / µg/mL": 0.5}
{"Molecular string": "O=CN(O)C[C@@H](CC1CCCC1)C(=O)N1CC=C[C@H]1C(=O)Nc1ccccc1", "MIC / µg/mL": 1}

Give the measured MIC of C=C1C[C@@H](C(=O)Nc2ccc(F)cn2)N(C(=O)[C@H](CCCC)CN(O)C=O)C1 . 8

Would you mind telling me what MIC value was observed for O=CN(O)C[C@@H](CC1CCCC1)C(=O)N1CC=C[C@H]1C(=O)Nc1ccc(F)c[n+]1[O-] ? 0.25

---

experiment: Acute toxicity in iv dosed KM mouse measured for 14 days; type: organism-based; conditions: in vivo
Measured parameter: LD50 at 336 h

Which value of LD50 at 336 h has been reported for CCCC[C@H](CN(O)C=O)C(=O)N1CC=C[C@H]1C(=O)Nc1ccc(F)c[n+]1[O-] in the records? > 250 mg/kg

---

tested on: Moraxella catarrhalis; test: Antimicrobial activity against Moraxella catarrhalis after 24 hrs by broth microdilution method; assay type: functional
Measured parameter: MIC

In the examples that follow, each entry is paired with its recorded MIC.
{"Molecular string": "CCCC[C@H](CN(O)C=O)C(=O)N1C[C@@H](C)C[C@H]1C(=O)Nc1ccc(F)c[n+]1[O-]", "Measured value": "0.03 µg/mL"}
{"Molecular string": "CCCC[C@H](CN(O)C=O)C(=O)N1[C@H](C(=O)Nc2ccc(C)cn2)C[C@H]2CCCC[C@@H]21", "Measured value": "0.03 µg/mL"}
{"Molecular string": "Cc1cnc(NC(=O)[C@@H]2C[C@H](F)CN2C(=O)[C@H](CC2CCCC2)CN(O)C=O)s1", "Measured value": "0.125 µg/mL"}

Could you now consider this next molecule?
Reported MIC for CCCC[C@H](CN(O)C=O)C(=O)N1[C@H](C(=O)Nc2ncc(C)s2)C[C@H]2CCCC[C@@H]21 : what is it? 0.03 µg/mL

---

tested on: Haemophilus influenzae; assay: Antimicrobial activity against AcrA-deficient Haemophilus influenzae H128 after 24 hrs by broth microdilution method; assay type: functional; settings: H128, 24 h
Measured parameter: MIC

Consider the following illustrative entries.
{"Molecular string": "O=CN(O)C[C@@H](CC1CCCC1)C(=O)N1CC=C[C@H]1C(=O)Nc1ccccc1", "MIC": "≤ 0.06 µg/mL"}
{"Molecular string": "Cc1cnc(NC(=O)[C@@H]2C=CCN2C(=O)[C@H](CC2CCCC2)CN(O)C=O)s1", "MIC": "≤ 0.06 µg/mL"}
{"Molecular string": "O=CN(O)C[C@@H](CC1CCCC1)C(=O)N1CC=C[C@H]1C(=O)Nc1ccc(F)cc1", "MIC": "≤ 0.06 µg/mL"}

Lab note: next molecule to report on.
Form field: reported MIC of CC1(C)S[C@@H]2[C@H](NC(=O)[C@H](N)c3ccc(O)cc3)C(=O)N2[C@H]1C(=O)O 64 µg/mL
